B1: PhoQ; a variant is named by its letters at X, in order, P23837 (parent)
chain: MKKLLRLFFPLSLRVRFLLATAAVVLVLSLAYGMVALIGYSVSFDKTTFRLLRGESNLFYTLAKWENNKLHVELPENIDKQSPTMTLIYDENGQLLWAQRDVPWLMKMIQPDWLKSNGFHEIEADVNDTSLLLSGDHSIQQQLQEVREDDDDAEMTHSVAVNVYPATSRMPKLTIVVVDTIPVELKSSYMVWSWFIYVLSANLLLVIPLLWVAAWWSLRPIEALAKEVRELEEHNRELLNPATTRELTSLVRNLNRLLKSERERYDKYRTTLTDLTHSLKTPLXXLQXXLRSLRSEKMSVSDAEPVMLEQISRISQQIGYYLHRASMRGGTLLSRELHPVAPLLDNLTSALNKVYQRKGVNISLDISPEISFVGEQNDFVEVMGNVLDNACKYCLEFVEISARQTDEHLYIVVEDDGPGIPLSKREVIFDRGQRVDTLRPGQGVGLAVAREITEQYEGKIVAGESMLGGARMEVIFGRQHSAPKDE

- Variants of: B1
- assay-overview: enrichment ratio after two sorts for PhoP signalling (ratio (wild type AVST 3.29)); higher = more functional
- measurement-parameters: with PhoP (E. coli)
In all, about 140,000 sequences were measured (“enrichment ratio after two sorts for PhoP signalling”: median about 0, highest 2% from about 11 on). The sample holds the highest values, similar sequences and a random draw of the others, so the mix is not that of the screen.
observable: enrichment ratio

Sample TNSM — what was its enrichment ratio? 23.5

Given the variant VRFP , what is its reported enrichment ratio? ≤ 0.25

Which enrichment ratio reading was recorded for the variant IQKG ? ≤ 0.25

Can you look up the measured enrichment ratio of FGWK for me? ≤ 0.25

// lookup enrichment ratio for FGTK ≤ 0.25

Can you look up the measured enrichment ratio of NVAG for me? ≤ 0.25

What value of measured enrichment ratio is listed for MPTT ? ≤ 0.25

Name the reported enrichment ratio value associated with the variant TLKH ≤ 0.25

Need enrichment ratio of IEKA , thanks. ≤ 0.25

Any idea what its enrichment ratio is? The variant is CFSM 18.5

Entry WFSM : reported enrichment ratio = ? ≤ 0.25

Could you share which enrichment ratio value was measured for WPFI ? ≤ 0.25

Form field: reported enrichment ratio of MHLE ≤ 0.25

Which enrichment ratio value belongs to KASV ? ≤ 0.25

What does the record list as enrichment ratio for TLQH ? 21.1

Entry under review: TVAG . Reported enrichment ratio? 17.8

Please report the recorded enrichment ratio for AEDM . ≤ 0.25

// enrichment ratio lookup, key: AKSM 15.5

# lookup: enrichment ratio of AHSM 4.11

// enrichment ratio lookup, key: TASV 17.9

I am curious: what enrichment ratio value has been reported for HICM ? ≤ 0.25

Fill in: enrichment ratio of THWI is ___ ≤ 0.25

Entry WPTS : reported enrichment ratio = ? ≤ 0.25

Any idea what its enrichment ratio is? The variant is TVAA 20.7

Request the reported enrichment ratio associated with LTHP ≤ 0.25

What value of measured enrichment ratio is listed for HTSR ? ≤ 0.25

Which enrichment ratio is reported for this variant? SPAN ≤ 0.25

// lookup enrichment ratio for PLSM ≤ 0.25

Endpoint output: enrichment ratio of GGSM . Value? 7.14

Recorded enrichment ratio for TLSM , please? 25.5

Any idea what enrichment ratio was measured for TGSM ? 23.5

What value of measured enrichment ratio is listed for TLEC ? ≤ 0.25

Form field: reported enrichment ratio of ADSM ≤ 0.25

Give the measured enrichment ratio of HCSV . ≤ 0.25

Fill blank: measured enrichment ratio of the variant SLSM is ____. 8.94

I would be grateful if you could share the reported enrichment ratio for NMMW . ≤ 0.25

// lookup enrichment ratio for TMSV 16.5

enrichment ratio lookup needed for PVAG , thanks. ≤ 0.25

State the recorded enrichment ratio for this entry: CLSF 10.1

For SPSV , what is its reported enrichment ratio? ≤ 0.25

Reported enrichment ratio, variant VLSM : ____ 0.436

I'd like to know its enrichment ratio. The variant in question is TVAN 16.9

Which enrichment ratio value belongs to NCRM ? ≤ 0.25

Using the record for TVAT , report its enrichment ratio. 16.8

Would you mind telling me what enrichment ratio value was observed for IGKY ? ≤ 0.25

Tell me the measured enrichment ratio of NVAT , please. ≤ 0.25
